Ref: PubChem BioAssay

experiment: S. cerevisiae growth inhibition in restrictive medium, OD615, pilot screen, restrictive growth control, yeast lifespan reduction project (AID 706);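 further: modified DeaD lifespan yeast strain shifted to restrictive glucose medium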
details: OD615, 48 h, at 10 µM, hits give high values
Each entry below lists one item and its recorded growth inhibition value.
Quick note: give the figure in %, leave out the unit.

[[record]]
molecule = "Cc1ccccc1N1C(=O)c2cccc3c(N(C)CCO)ccc(c23)C1=O"
endpoint = "growth inhibition"
measured = -6.49

[[record]]
molecule = "CC(C)CCNC(=O)Cn1c(NCCC(C)C)nc2c1c(=O)n(C)c(=O)n2C"
endpoint = "growth inhibition"
measured = -0.68

[[record]]
molecule = "CN(C)S(=O)(=O)c1ccc2c(c1)c(=O)c(C(=O)NCCCN1CCCCCC1)cn2C"
endpoint = "growth inhibition"
measured = 8.09

[[record]]
molecule = "CN(C(=O)c1ccccc1C(=O)c1ccccc1)C1CCS(=O)(=O)C1 (stereo unspecified)"
endpoint = "growth inhibition"
measured = 3.21

[[record]]
molecule = "Cc1nc(=O)c(-c2ccccc2)c(C)n1CC1CCCO1 (stereo unspecified)"
endpoint = "growth inhibition"
measured = -9.15

[[record]]
molecule = "S=c1[nH]nc(CSc2nc3ccccc3s2)o1"
endpoint = "growth inhibition"
measured = 16.7


**Q:** Which value of growth inhibition has been reported for "COc1ccc(-n2c(Cc3cccn3C)nnc2SCC(N)=O)cc1" in the records?
**A:** 5.57

**Q:** Which value of growth inhibition has been reported for "Cn1c(=O)c2c(nc(CN3CCN(CCO)CC3)n2Cc2ccccc2Cl)n(C)c1=O" in the records?
**A:** -2.67

**Q:** Which value of growth inhibition has been reported for "Cc1ccc(C(=O)Nc2ccc3c(c2)CCC3)o1" in the records?
**A:** -9.54

**Q:** Which value of growth inhibition has been reported for "COc1ccc(-n2c(Cc3cccn3C)nnc2SCC(=O)Nc2cccc(Cl)c2)cc1" in the records?
**A:** 21.3

**Q:** Which value of growth inhibition has been reported for "CCOC(=O)C1CCN(Cc2ccc(F)c(Br)c2)CC1" in the records?
**A:** -1.05

---

experiment: doxorubicin toxicity protection in MRP-1 cells – H69AR cells, CellTiter-Glo, duplicate, MRP-1 activator project, pilot screen (AID 807);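 further: compound pretreatment 18-22 h then 72 h combined with doxorubicin; 0% = doxorubicin alone and 100% = vehicle without doxorubicin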
details: H69AR viability with doxorubicin, CellTiter-Glo luminescence; at 10 µM; hits give high values
Each entry below lists one item and its recorded viability increase value.
Quick note: give the figure in %, leave out the unit.

**Q:** Which value of viability increase has been reported for "Cc1cc(NC(=O)CSc2cn(CCNC(=O)c3ccc(Cl)cc3)c3ccccc23)no1" in the records?
**A:** -0.7

**Q:** Which value of viability increase has been reported for CCOc1ccc(CCN2C(=O)C3C4C=CC(C4)C3C2=O)cc1OCC (configuration not stated) in the records?
**A:** -0.38

**Q:** Which value of viability increase has been reported for "Cc1ccc(N(C)C(=O)N2CCN(S(=O)(=O)c3ccc(C)cc3)CC2)cc1" in the records?
**A:** -1.03

**Q:** Which value of viability increase has been reported for "O=C(CCC(=O)OCC(=O)c1ccccc1)NC1CCCCC1" in the records?
**A:** -0.49

**Q:** Which value of viability increase has been reported for "Cc1cc(/C=N/n2cnnc2)c(C)n1-c1cccc(Cl)c1" in the records?
**A:** -3.15

**Q:** Which value of viability increase has been reported for COC(=O)c1ccccc1NC1c2ccccc2C(=O)N1c1cccnc1 (configuration not stated) in the records?
**A:** -0.86

**Q:** Which value of viability increase has been reported for "CCOCCOc1nc2c(c(=O)n(C)c(=O)n2C)n1Cc1ccc(C)cc1" in the records?
**A:** 0.37

**Q:** Which value of viability increase has been reported for "CN(C)c1ccc(C(=O)Nc2nnc(-c3ccc(Cl)cc3)o2)cc1" in the records?
**A:** -3.93

**Q:** Which value of viability increase has been reported for "O=C(C1CC1)N1CCc2cc(Br)cc(S(=O)(=O)N3CCOCC3)c21" in the records?
**A:** -5.31
